Values compiled from patent US20230087844A1.

# System: H441
# Test: MTT tumor cell proliferation, H441
# Assay type: cell-based
# Condition Info: Homo sapiens, NCI-H441; H441, Lung cancer, 72 hour
Endpoint: IC50 (µM)
Answer in µM, number only, no unit symbol.

For the molecule c1cnc2ccc(Nc3nc(NC4CC4)c4nc[nH]c4n3)cc2c1 [Compound A] , what IC50 is on record?
15.9

====

# Test system: Reh
# Test: MTT tumor cell proliferation, Reh
# Assay type: cell-based
# Condition Info: Homo sapiens, Acute lymphocytic leukemia, 72 hour
# Experimental: as an exemplary compound of formula (I), was tested for its inhibitory effect on tumor cell proliferation in a MTT assay. Briefly, cells at the log phase were collected, suspended in the cell culture medium at 4*10^4/ml density, and plated in 96-well plates, 90 μl per well. […] Absorbance at 570 nm was read in a reader, and IC50 was calculated.
Endpoint: pIC50
Please note pIC50 is a logarithmic value: minus log10 of concentration in mol/L. Answer with that number alone.

Lab request: please report pIC50 under test system Reh for "c1cnc2ccc(Nc3nc(NC4CC4)c4nc[nH]c4n3)cc2c1"
6.10
